- EXPERIMENTAL TARGET: MAP kinase-activated protein kinase 2 (Homo sapiens, UniProt P49137)
- Sequence (P49137 whole entry): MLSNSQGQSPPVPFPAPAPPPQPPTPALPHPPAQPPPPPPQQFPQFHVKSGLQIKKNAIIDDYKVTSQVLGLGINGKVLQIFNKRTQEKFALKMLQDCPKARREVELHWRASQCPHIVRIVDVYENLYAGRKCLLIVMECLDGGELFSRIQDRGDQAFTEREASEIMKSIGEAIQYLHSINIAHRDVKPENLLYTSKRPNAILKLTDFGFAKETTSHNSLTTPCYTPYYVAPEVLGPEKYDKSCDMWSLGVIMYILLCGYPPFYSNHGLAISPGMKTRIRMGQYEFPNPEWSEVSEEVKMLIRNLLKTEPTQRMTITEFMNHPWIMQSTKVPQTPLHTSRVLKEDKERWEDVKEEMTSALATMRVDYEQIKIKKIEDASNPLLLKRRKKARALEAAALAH
- RUN DESCRIPTION: Inhibition of MK2 pretreated for 30 mins before fluorescein labeled substrate peptide addition measured after 2 hrs by IMAP assay
MEASURE NAME: EC50 (nM)

Known results for molecules:
MOLECULE	EC50, nM
O=C1NC[C@@]2(CCCNC2)c2[nH]c(-c3ccnc(-c4ccc5c(c4)OCO5)n3)cc21	7.4
COc1cncc(-c2nccc(-c3cc4c([nH]3)C3(CCNCC3)CNC4=O)n2)c1	6.9
COCCCOc1ccc(-c2nccc(-c3cc4c([nH]3)C3(CCCNC3)CNC4=O)n2)cn1 (racemic)	21
O=C1NCC2(CCNCC2)c2[nH]c(-c3ccnc(-c4ccc5ccccc5c4)n3)cc21	5.1
CN1CCC2(CC1)CNC(=O)c1cc(-c3ccnc(-c4cc5ccccc5o4)n3)[nH]c12	13

[a] Nc1ccc(-c2nccc(-c3cc4c([nH]3)C3(CCNCC3)CNC4=O)n2)cn1
[b] O=C1NCC2(CCNCC2)c2[nH]c(-c3ccnc(-c4cccnc4)n3)cc21
### Prompt Please compare: a and b . Report which one has the smaller EC50 value. Refer to your chosen item by its label in the answer.
### Response b

* * *

- RUN DESCRIPTION: in vitro
- TEST PARAMETERS: human, Caco-2
- Description: Permeability across human Caco2 cells
MEASURE NAME: Papp (×10⁻⁶ cm/s)

COMPOUND	OUTPUT UNIT	Papp
O=C1NCC2(CCCNC2)c2[nH]c(-c3ccnc(-c4ccc5c(c4)OCO5)n3)cc21 (racemic)	×10⁻⁶ cm/s	3.4
O=C1NCC2(CCNCC2)c2[nH]c(-c3ccnc(-c4ccc5c(c4)OCO5)n3)cc21	×10⁻⁶ cm/s	0.1
CN1CCC2(CC1)CNC(=O)c1cc(-c3ccnc(-c4cc5ccccc5o4)n3)[nH]c12	×10⁻⁶ cm/s	1
CCN1CCC2(CC1)CNC(=O)c1cc(-c3ccnc(-c4cc5ccccc5o4)n3)[nH]c12	×10⁻⁶ cm/s	0.8

[1] COCCCOc1ccc(-c2nccc(-c3cc4c([nH]3)C3(CCCNC3)CNC4=O)n2)cn1 (racemic)
[2] O=C1NCC2(CCCNC2)c2[nH]c(-c3ccnc(-c4cc5ccccc5o4)n3)cc21 (racemic)
### Prompt Please compare: 1 and 2 . Report which one has the smaller Papp value. Refer to your chosen item by its label in the answer.
### Response 2

* * *

- EXPERIMENTAL TARGET: Mitogen-activated protein kinase 1 (Homo sapiens)
- RUN DESCRIPTION: Inhibition of ERK2 at 1 uM
Each record here notes measured inhibition.

Known results for compounds:
COMPOUND	inhibition
COCCCOc1ccc(-c2nccc(-c3cc4c([nH]3)[C@@]3(CCCNC3)CNC4=O)n2)cn1	> 80%
Nc1ncc(-c2nccc(-c3cc4c([nH]3)C3(CCNCC3)CNC4=O)n2)cn1	> 80%
CN1CCC2(CC1)CNC(=O)c1cc(-c3ccnc(-c4cc5ccccc5o4)n3)[nH]c12	> 80%
O=C1NCC2(CCNCC2)c2[nH]c(-c3ccnc(-c4cccc(F)c4)n3)cc21	> 80%
O=C1NCC2(CCCNC2)c2[nH]c(-c3ccnc(-c4cc5ccccc5o4)n3)cc21 (racemic)	> 80%
O=C1NCC2(CCNCC2)c2[nH]c(-c3ccnc(-c4cnc5ccccc5c4)n3)cc21	> 80%
O=C1NCC2(CCNCC2)c2[nH]c(-c3ccnc(-c4ccc(C(F)(F)F)cc4)n3)cc21	> 80%
CC(C)(C)c1ccc(-c2nccc(-c3cc4c([nH]3)C3(CCNCC3)CNC4=O)n2)cc1	> 80%

COc1cncc(-c2nccc(-c3cc4c([nH]3)C3(CCCNC3)CNC4=O)n2)c1 (racemic) yielded inhibition of > 80%

* * *

- EXPERIMENTAL TARGET: MAP kinase-activated protein kinase 2 (Homo sapiens, UniProt P49137)
- RUN DESCRIPTION: Inhibition of MK2 in LPS-stimulated human THP1 cells assessed as inhibition of Hsp27 phosphorylation pretreated 60 mins before LPS challenge measured after 10 mins
- Assay type: cell-based, THP-1
MEASURE NAME: EC50 (nM)

Known results for molecules:
MOLECULE	MEASURE NAME	REPORTED
COCCCOc1ccc(-c2nccc(-c3cc4c([nH]3)C3(CCCNC3)CNC4=O)n2)cn1 (racemic)	EC50	1400
O=C1NC[C@]2(CCCNC2)c2[nH]c(-c3ccnc(-c4cccnc4)n3)cc21	EC50	5800
O=C1NCC2(CCCNC2)c2[nH]c(-c3ccnc(-c4ccc5c(c4)OCO5)n3)cc21 (racemic)	EC50	930
O=C1NCC2(CCNCC2)c2[nH]c(-c3ccnc(-c4cc5ccccc5o4)n3)cc21	EC50	1200
O=C1NC[C@]2(CCCNC2)c2[nH]c(-c3ccnc(-c4ccc5c(c4)OCO5)n3)cc21	EC50	7700
CN1CCC2(CC1)CNC(=O)c1cc(-c3ccnc(-c4cc5ccccc5o4)n3)[nH]c12	EC50	1600
COc1cncc(-c2nccc(-c3cc4c([nH]3)[C@@]3(CCCNC3)CNC4=O)n2)c1	EC50	2300
O=C1NC[C@@]2(CCCNC2)c2[nH]c(-c3ccnc(-c4ccc5c(c4)OCO5)n3)cc21	EC50	500
COc1cncc(-c2nccc(-c3cc4c([nH]3)C3(CCCNC3)CNC4=O)n2)c1 (racemic)	EC50	900
COc1cncc(-c2nccc(-c3cc4c([nH]3)[C@]3(CCCNC3)CNC4=O)n2)c1	EC50	1100

[A] COCCCOc1ccc(-c2nccc(-c3cc4c([nH]3)[C@]3(CCCNC3)CNC4=O)n2)cn1
[B] O=C1NCC2(CCNCC2)c2[nH]c(-c3ccnc(-c4ccc5c(c4)OCO5)n3)cc21
[C] O=C1NCC2(CCCNC2)c2[nH]c(-c3ccnc(-c4cccnc4)n3)cc21 (racemic)
[D] O=C1NC[C@@]2(CCCNC2)c2[nH]c(-c3ccnc(-c4cccnc4)n3)cc21
### Prompt Arrange these 4 molecules in increasing order of EC50. Answer with the labels in sequence, matching the requested order.
### Response A, B, D, C

* * *

- RUN DESCRIPTION: Inhibition of p38
Active and inactive are the calls of the source. No cut-off for these calls is given here.
MEASURE NAME: inhibition

Known results for molecules:
MOLECULE	REPORTED
O=C1NCC2(CCNCC2)c2[nH]c(-c3ccnc(-c4cc5ccccc5o4)n3)cc21	inactive
O=C1NCC2(CCNCC2)c2[nH]c(-c3ccnc(-c4ccc5c(c4)OCO5)n3)cc21	inactive
CC(C)c1cccc(-c2nccc(-c3cc4c([nH]3)C3(CCNCC3)CNC4=O)n2)c1	inactive
CC(=O)c1ccc(-c2nccc(-c3cc4c([nH]3)C3(CCNCC3)CNC4=O)n2)cc1	inactive
COCCCOc1ccc(-c2nccc(-c3cc4c([nH]3)C3(CCCNC3)CNC4=O)n2)cn1 (racemic)	inactive

O=C1NC[C@]2(CCCNC2)c2[nH]c(-c3ccnc(-c4cccnc4)n3)cc21 yielded inhibition of inactive

COc1cncc(-c2nccc(-c3cc4c([nH]3)C3(CCCNC3)CNC4=O)n2)c1 (racemic) yielded inhibition of inactive

O=C1NCC2(CCNCC2)c2[nH]c(-c3ccnc(-c4cccc(F)c4)n3)cc21 yielded inhibition of inactive

O=C1NCC2(CCNCC2)c2[nH]c(-c3ccnc(-c4ccccc4F)n3)cc21 yielded inhibition of inactive

* * *

- RUN DESCRIPTION: Oral bioavailability in mouse
- Type: ADME, organism-based
- TEST PARAMETERS: in vivo
MEASURE NAME: bioavailability (%)

[A] O=C1NCC2(CCNCC2)c2[nH]c(-c3ccnc(-c4ccc5c(c4)OCO5)n3)cc21
[B] O=C1NCC2(CCCNC2)c2[nH]c(-c3ccnc(-c4ccc5c(c4)OCO5)n3)cc21 (racemic)
### Prompt Please compare: A and B . Report which one has the smaller bioavailability value. Refer to your chosen item by its label in the answer.
### Response A
(A: 0.7%, B: 48%)

* * *

- EXPERIMENTAL TARGET: Serine/threonine-protein kinase pim-3 (Homo sapiens)
- RUN DESCRIPTION: Inhibition of PIM3 at 1 uM
Each record here notes measured inhibition.

Known results for compounds:
COMPOUND	inhibition
O=C1NCC2(CCCNC2)c2[nH]c(-c3ccnc(-c4ccc5c(c4)OCO5)n3)cc21 (racemic)	> 80%
O=C1NCC2(CCNCC2)c2[nH]c(-c3ccnc(-c4cc5ccccc5o4)n3)cc21	> 80%
O=C1NCC2(CCNCC2)c2[nH]c(-c3ccnc(-c4cccc(F)c4)n3)cc21	> 80%
O=C1NCC2(CCNCC2)c2[nH]c(-c3ccnc(-c4cnc5ccccc5c4)n3)cc21	> 80%

Nc1ncc(-c2nccc(-c3cc4c([nH]3)C3(CCNCC3)CNC4=O)n2)cn1 yielded inhibition of > 80%

* * *

- Test system: THP-1
- RUN DESCRIPTION: Cytotoxicity against human THP1 cells by Alamar blue assay
- Type: cell-based
Each record here notes measured Activity.

Known results for molecules:
SMI	EXPERIMENTAL TARGET	Activity
CN1CCC2(CC1)CNC(=O)c1cc(-c3ccnc(-c4cc5ccccc5o4)n3)[nH]c12	THP-1	> 10 µM
CCN1CCC2(CC1)CNC(=O)c1cc(-c3ccnc(-c4cc5ccccc5o4)n3)[nH]c12	THP-1	> 10 µM

Read the next record carefully.
O=C1NCC2(CCNCC2)c2[nH]c(-c3ccnc(-c4cc5ccccc5o4)n3)cc21 yielded Activity of > 10 µM
